Reported ED50 values are given for each entry in this list.
Tested on: Rattus norvegicus
procedureSummary: Antiallergic activity in iv dosed adrenalectomized Sprague-Dawley rat assessed as inhibition of ovalbumin-induced passive cutaneous anaphylaxis reaction after 12 days by Evans blue staining
Format: functional
measurementParameters: 288 h
# unit: mg/kg | format: bare number

[[record]]
compound = "NCCO.O=C(O)c1cc(=O)c2cc3c(oc(=O)c4ccccc43)c(O)c2o1"
unitssymbol = "mg/kg"
observedvalue = 2

[[record]]
compound = "CC1(C)Oc2cc3oc(C(=O)[O-])cc(=O)c3cc2-c2ccc(O)cc21.[Na+]"
unitssymbol = "mg/kg"
observedvalue = 0.3

[[record]]
compound = "CC1(C)Oc2cc3oc(C(=O)O)cc(=O)c3cc2-c2ccc(F)cc21.NCCO"
unitssymbol = "mg/kg"
observedvalue = 0.87

[[record]]
compound = "O=C([O-])c1cc(=O)c2c(OCC(O)COc3cccc4oc(C(=O)[O-])cc(=O)c34)cccc2o1.[Na+].[Na+] [CROMOLYN SODIUM]"
unitssymbol = "mg/kg"
observedvalue = 2.88

[[record]]
compound = "CC1(C)Oc2cc3oc(C(=O)O)cc(=O)c3cc2-c2ccccc21.NCCO"
unitssymbol = "mg/kg"
observedvalue = 0.5


For the compound O=C([O-])c1cc(=O)c2cc3c(cc2o1)OCc1ccccc1-3.[Na+] , give its reported ED50.
0.3

Output measured ED50 for this item: CC1(C)Oc2cc3oc(C(=O)O)cc(=O)c3cc2-c2ccc(OCCO)cc21.NCCO
0.11

Entry source: ChEMBL document CHEMBL3244041
